biological target: TEM-1 β-lactamase (UniProt P62593 24-286); test: β-lactamase inhibition assay (nitrocefin hydrolysis, Morrison tight-binding fit); increasing concentrations of BLIP incubated with 1 nM β-lactamase for 1 h at room temperature in 50 mM sodium phosphate pH 7.0; nitrocefin added at its Km, initial velocity at 482 nm; Ki calculated from Ki app; settings: both partners purified
Sequence (P62593 24-286): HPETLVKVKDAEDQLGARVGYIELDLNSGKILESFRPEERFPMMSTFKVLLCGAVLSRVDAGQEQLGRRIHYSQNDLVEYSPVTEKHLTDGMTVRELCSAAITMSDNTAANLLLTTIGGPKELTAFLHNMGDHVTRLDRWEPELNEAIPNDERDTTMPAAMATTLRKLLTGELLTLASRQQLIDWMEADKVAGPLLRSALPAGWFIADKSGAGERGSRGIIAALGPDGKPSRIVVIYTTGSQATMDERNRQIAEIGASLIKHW
I'd appreciate it if you could supply pKi values for the items below.
Answers are plain numbers, as −log10 of the molar value.

Given BLIP [change] (natural protein) AGVMTGAKFTQIQFGMTRQQVLDIAGAENCETGGSFGDSIHCRGHAAGDLYAYATFGFTSAAADAKVDSKSQEKLLAPSAPTLTLAKFNQVTVGMTRAQVLATVGQGSCTTWSEYYPAYPSTAGVTLSLSCFDVDGYSSTGFYRGSAHLWFTDGVLQGKRQWDLV , state its recorded pKi. 9.77

Recorded pKi for BLIP [change] (natural protein) AGVMTGAKFTQIQFGMTRQQVLDIAGAENCETGGSFGDSIHCRGHAAGDMYAYATFGFTSAAADAKVDSKSQEKLLAPSAPTLTLAKFNQVTVGMTRAQVLATVGQGSCTTWSEYYPAYPSTAGVTLSLSCFDVDGYSSTGFYRGSAHLWFTDGVLQGKRQWDLV , please? 9.96

--- query ---
Item under review: BLIP [change] (natural protein) AGVMTGAKFTQIQFGMTRQQVLDIAGAENCETGGSFGDSIHCRGHAAGDHYAYATFGFTSAAADAKVDSKSQEKLLAPSAPTLTLAKFNQVTVGMTRAQVLATVGQGSCTTWSEYYPAYPSTAGVTLSLSCFDVDGYSSTGFYRGSAHLWFTDGVLQGKRQWDLV . Reported pKi? 8.30

Provenance of the data: paper PMC5340008
